Experiment: Genotoxicity in Salmonella typhimurium TA1535 harboring pSK1002 assessed as umu gene induction at 0.063 mg/ml in absence of Sprague-Dawley rat liver S9 fraction after by SOS/umu assay relative to control
Assay type: toxicity, organism-based
Conditions: salmonella enterica subsp. enterica serovar typhimurium, read-out: FC
Give measured fold induction at 0.063 mg/ml for each item. Keep answers brief.
Answer as a number with no unit attached.

Entry under test: N#Cc1ccc(N2CCC(NCCC(O)c3ccc(F)c4ccccc34)CC2)c(Cl)c1 (stereo not given) . Its fold induction at 0.063 mg/ml was 0.3

Entry under test: N#Cc1ccc(N2CCC(NCCC(O)c3ccc(F)c4ccccc34)CC2)c(C(F)(F)F)c1 (stereo in doubt; 72) . Its fold induction at 0.063 mg/ml was 0.3

Entry under test: COc1ccccc1C1=CCN(CCC(O)c2ccc(F)c3ccccc23)CC1 (stereo not given) . Its fold induction at 0.063 mg/ml was 0.5

Entry under test: N#Cc1ccc(N2CCC(NCCC(O)c3ccc(F)c4ccccc34)CC2)c(Br)c1 (stereo not given) . Its fold induction at 0.063 mg/ml was 0.6

Entry under test: OC(CCN1CCN(c2ccc(F)cc2)CC1)c1ccc(F)c2ccccc12 (stereo not given) . Its fold induction at 0.063 mg/ml was 0.5

Entry under test: O=[N+]([O-])c1ccccc1N1CCN(CCC(O)c2ccc(F)c3ccccc23)CC1 (stereo not given) . Its fold induction at 0.063 mg/ml was 0.8

Entry under test: COc1ccccc1N1CCN(CCC(O)c2ccc(F)c3ccccc23)CC1 (stereo not given) . Its fold induction at 0.063 mg/ml was 0.9

Entry under test: OC(CCN1CCN(c2ccccc2C(F)(F)F)CC1)c1ccc(F)c2ccccc12 (stereo in doubt; 55) . Its fold induction at 0.063 mg/ml was 0.2

Entry under test: COc1ccccc1N1CCN(CCC(O)c2ccc(F)cc2)CC1 (stereo in doubt; 66) . Its fold induction at 0.063 mg/ml was 0.9

Entry under test: OC(CCN1CCN(C(c2ccccc2)c2ccccc2)CC1)c1ccc(F)c(F)c1 (stereo not given) . Its fold induction at 0.063 mg/ml was 4

---

Assay: Genotoxicity in Salmonella typhimurium TA1535 harboring pSK1002 assessed as umu gene induction at 0.004 mg/ml in absence of Sprague-Dawley rat liver S9 fraction after by SOS/umu assay relative to control
Format: toxicity, organism-based
Settings: salmonella enterica subsp. enterica serovar typhimurium, read-out: FC
Give measured fold induction at 0.004 mg/ml for each item. Keep answers brief.

Entry under test: OC(CCN1CCN(C(c2ccccc2)c2ccccc2)CC1)c1ccc(F)c(F)c1 (stereo not drawn) . Its fold induction at 0.004 mg/ml was 1

Entry under test: Oc1ccc(C(O)CCN2CC=C(c3ccc(F)cc3)CC2)cc1 (stereo not drawn) . Its fold induction at 0.004 mg/ml was 1

Entry under test: OC(CCN1CCN(C(c2ccccc2)c2ccccc2)CC1)c1ccc(F)c2ccccc12 (stereo not drawn) . Its fold induction at 0.004 mg/ml was 1.3

---

Give measured fold induction at 0.25 mg/ml for each item. Keep answers brief.
Test: Genotoxicity in Salmonella typhimurium TA1535 harboring pSK1002 assessed as umu gene induction at 0.25 mg/ml in absence of Sprague-Dawley rat liver S9 fraction after by SOS/umu assay relative to control
Format: toxicity, organism-based
Details: salmonella enterica subsp. enterica serovar typhimurium, read-out: FC
Answer as a number with no unit attached.

Entry under test: COc1ccccc1N1CCN(CCC(O)c2ccc(F)c3ccccc23)CC1 (stereo not given) . Its fold induction at 0.25 mg/ml was 0.3

Entry under test: OC(CCN1CCN(c2ccccc2C(F)(F)F)CC1)c1ccc(F)cc1 (stereo not given) . Its fold induction at 0.25 mg/ml was 0.5

Entry under test: OC(CCN1CCN(c2ccccc2C(F)(F)F)CC1)c1ccc(F)c2ccccc12 (stereo in doubt; 55) . Its fold induction at 0.25 mg/ml was 0.1

Entry under test: COc1ccccc1C1=CCN(CCC(O)c2ccc(F)c3ccccc23)CC1 (stereo not given) . Its fold induction at 0.25 mg/ml was 0.1

Entry under test: N#Cc1ccc(C(O)CCN2CC=C(c3ccc(F)cc3)CC2)cc1 (stereo not given) . Its fold induction at 0.25 mg/ml was 1.2

Entry under test: COc1ccccc1C1=CCN(CCC(O)c2ccc(F)cc2)CC1 (stereo not given) . Its fold induction at 0.25 mg/ml was 1.3

Entry under test: Nc1ccc(N2CCC(NCCC(O)c3ccc(F)c4ccccc34)CC2)c(C(F)(F)F)c1 (stereo not given) . Its fold induction at 0.25 mg/ml was 0.2

Entry under test: OC(CCN1CC=C(c2ccc(F)cc2)CC1)c1ccc2c(c1)OCO2 (stereo not given) . Its fold induction at 0.25 mg/ml was 0.7

Entry under test: OC(CCN1CCN(c2ccc(F)cc2)CC1)c1ccc(F)c2ccccc12 (stereo not given) . Its fold induction at 0.25 mg/ml was 1.1

Entry under test: COc1ccccc1N1CCN(CCC(O)c2ccc(F)cc2)CC1 (stereo in doubt; 66) . Its fold induction at 0.25 mg/ml was 1.1

---

Give measured viability at 0.016 mg/ml for each item. Keep answers brief.
Assay: Genotoxicity in Salmonella typhimurium TA1535 harboring pSK1002 assessed as survival at 0.016 mg/ml in absence of Sprague-Dawley rat liver S9 fraction after by SOS/umu assay relative to control
Assay type: toxicity, organism-based
Conditions: salmonella enterica subsp. enterica serovar typhimurium, read-out: Survival
Record the value in %, omitting the unit from your answer.

Entry under test: Nc1ccc(N2CCC(NCCC(O)c3ccc(F)c4ccccc34)CC2)c(C(F)(F)F)c1 (stereo not given) . Its viability at 0.016 mg/ml was 28.3

Entry under test: OC(CCN1CCN(c2ccc(F)cc2)CC1)c1ccc(F)c2ccccc12 (stereo not given) . Its viability at 0.016 mg/ml was 85.4

Entry under test: N#Cc1ccc(C(O)CCN2CC=C(c3ccc(F)cc3)CC2)cc1 (stereo not given) . Its viability at 0.016 mg/ml was 85.1

Entry under test: OC(CCN1CCN(C(c2ccccc2)c2ccccc2)CC1)c1ccc(Cl)cc1 (stereo not given) . Its viability at 0.016 mg/ml was 112

Entry under test: OC(CCN1CCN(C(c2ccccc2)c2ccccc2)CC1)c1ccc(F)c2ccccc12 (stereo not given) . Its viability at 0.016 mg/ml was 86.3

Entry under test: O=[N+]([O-])c1ccccc1N1CCN(CCC(O)c2ccc(F)c3ccccc23)CC1 (stereo not given) . Its viability at 0.016 mg/ml was 50.6

Entry under test: N#Cc1ccc(N2CCC(NCCC(O)c3ccc(F)c4ccccc34)CC2)c(C(F)(F)F)c1 (stereo in doubt; 72) . Its viability at 0.016 mg/ml was 28.3

Entry under test: OC(CCN1CCN(C(c2ccccc2)c2ccccc2)CC1)c1ccc(Br)cc1 (stereo not given) . Its viability at 0.016 mg/ml was 121

Entry under test: OC(CCN1CCN(C(c2ccccc2)c2ccccc2)CC1)c1ccc(F)c(F)c1 (stereo not given) . Its viability at 0.016 mg/ml was 36.7

Entry under test: OC(CCN1CC=C(c2ccc(F)cc2)CC1)c1ccc2c(c1)OCO2 (stereo not given) . Its viability at 0.016 mg/ml was 92.5

---

Test: Genotoxicity in Salmonella typhimurium TA1535 harboring pSK1002 assessed as umu gene induction at 0.002 mg/ml in presence of Sprague-Dawley rat liver S9 fraction after by SOS/umu assay relative to control
Format: toxicity, organism-based
Details: salmonella enterica subsp. enterica serovar typhimurium, read-out: FC
experimental_endpoint: fold induction at 0.002 mg/ml
Answer as a number with no unit attached.

Entry under test: OC(CCN1CCN(c2ccc(F)cc2)CC1)c1ccc(F)c2ccccc12 (stereo not drawn) . Its fold induction at 0.002 mg/ml was 0.8

Entry under test: OC(CCN1CCN(C(c2ccccc2)c2ccccc2)CC1)c1ccc(F)c(Cl)c1 (stereo not drawn) . Its fold induction at 0.002 mg/ml was 1.1

Entry under test: O=[N+]([O-])c1ccccc1N1CCN(CCC(O)c2ccc(F)c3ccccc23)CC1 (stereo not drawn) . Its fold induction at 0.002 mg/ml was 0.7

---

Experiment: Genotoxicity in Salmonella typhimurium TA1535 harboring pSK1002 assessed as survival at 0.016 mg/ml in absence of Sprague-Dawley rat liver S9 fraction after by SOS/umu assay relative to control
Assay type: toxicity, organism-based
Settings: salmonella enterica subsp. enterica serovar typhimurium, read-out: Survival
Give measured viability at 0.016 mg/ml for each item. Keep answers brief.
Record the value in %, omitting the unit from your answer.

Entry under test: OC(CCN1CCN(c2ccccc2C(F)(F)F)CC1)c1ccc(F)cc1 (stereo not given) . Its viability at 0.016 mg/ml was 99.8

Entry under test: COc1ccccc1C1=CCN(CCC(O)c2ccc(F)cc2)CC1 (stereo not given) . Its viability at 0.016 mg/ml was 106

Entry under test: COc1ccccc1N1CCN(CCC(O)c2ccc(F)cc2)CC1 (stereo in doubt; 66) . Its viability at 0.016 mg/ml was 108

Entry under test: O=[N+]([O-])c1ccc(N2CCN(CCC(O)c3ccc(F)c4ccccc34)CC2)cc1 (stereo not given) . Its viability at 0.016 mg/ml was 83.8

Entry under test: N#Cc1ccc(N2CCC(NCCC(O)c3ccc(F)c4ccccc34)CC2)c(Cl)c1 (stereo not given) . Its viability at 0.016 mg/ml was 36.8
